- experimental-system: human GABAA α1β3γ2 receptor (Homo sapiens (Human), UniProt P14867+P18507)
- procedure-summary: Radioligand binding assay, competition for [3H]Flumazenil, γ2-containing GABAA subtypes
Readings of pKi for the listed compounds
// pKi is dimensionless: -log10 of concentration (M)

Cc1nnc2n1-c1sc3c(c1C(c1c(F)cccc1F)=N[C@H]2C)COC[C@H](C)O3; 5.74
Cc1nnc2n1-c1sc3c(c1C(c1c(F)cccc1F)=N[C@H]2C)CC[C@@H](O)CC3; 4.94
C[C@@H]1N=C(c2c(F)cccc2F)c2c(sc3c2COCCO3)-n2c(C3CC3)nnc21; 5.27
CC(C)c1nnc2n1-c1sc3c(c1C(c1c(F)cccc1F)=N[C@H]2C)COCCO3; 5.19
Cc1nnc2n1-c1sc3c(c1C(c1c(F)cccc1F)=N[C@H]2C)CC[C@@H](F)CC3 (single isomer, unassigned); 5.45

Noted for Cc1nnc2n1-c1sc3c(c1C(c1c(F)cccc1F)=NC2)CCCCO3 : its pKi reads 6.37

Noted for Cc1nnc2n1-c1sc3c(c1C(c1c(F)cccc1Cl)=N[C@H]2C)COCCO3 : its pKi reads 5.40

Noted for Cc1nnc2n1-c1sc3c(c1C(c1c(F)cccc1F)=N[C@H]2C)CCCC[C@H]3F (single isomer, unassigned) : its pKi reads 6.08

Noted for Cc1nnc2n1-c1sc3c(c1C(c1c(F)cccc1F)=N[C@H]2C)CCCC[C@@H]3F (single isomer, unassigned) : its pKi reads 6.00

Noted for Cc1nc2n(n1)-c1sc3c(c1C(c1c(F)cccc1F)=N[C@H]2C)COCCC3 : its pKi reads 5.35

Noted for Cc1nnc2n1-c1sc3c(c1C(c1c(F)cccc1F)=N[C@H]2C)CCCCO3 : its pKi reads 6.21

Noted for Cc1cn2c(nc1=O)[C@H](C)N=C(c1c(F)cccc1F)c1c-2sc2c1CCCCC2 : its pKi reads 5.22

Noted for Cc1nnc2n1-c1sc3c(c1C(c1c(F)cccc1F)=N[C@H]2C)COCC[C@H]3F : its pKi reads 5.29

----------
- experimental-system: human GABAA α1β3γ2 receptor (Homo sapiens (Human), UniProt P14867+P18507)
- procedure-summary: Radioligand binding assay, competition for [3H]Flumazenil, γ2-containing GABAA subtypes
- condition-description: Ki α1β3γ2 (nM)/Ki α2β2γ1 (nM), Table 1
Readings of γ2/γ1 Selectivity Ratio for the listed compounds
Please state the value as a number alone, without comment.

Record excerpt, results attached:
Cc1nnc2n1-c1sc3c(c1C(c1c(F)cccc1F)=N[C@H]2C)CCCC(O)C3 (mixture of isomers) [Example 13]; 78.9
C[C@@H]1N=C(c2c(F)cccc2F)c2c(sc3c2COCCC3)-n2nc(C(=O)NCC(C)(C)O)nc21 [Example 71]; 49.0

Noted for Cc1nnc2n1-c1sc3c(c1C(c1c(F)cccc1F)=NC2)CCOCC3 [Example 5] : its γ2/γ1 Selectivity Ratio reads 19.8

Noted for Cc1nnc2n1-c1sc3c(c1C(c1c(F)cccc1F)=N[C@H]2C)CC[C@@H](F)CO3 [Example 56] : its γ2/γ1 Selectivity Ratio reads 290.8

----------
Readings of Ki for the listed compounds
- experimental-system: human GABAA α1β3γ2 receptor (Homo sapiens (Human), UniProt P14867+P18507)
- procedure-summary: Radioligand binding assay, competition for [3H]Flumazenil, γ2-containing GABAA subtypes
Hi! Could you send only the number? It should be in µM, unit omitted.

Record excerpt, results attached:
Cc1cn2c(n1)[C@H](C)N=C(c1c(F)cccc1F)c1c-2sc2c1COCCC2; 1.4
Cc1nc2n(n1)-c1sc3c(c1C(c1c(F)cccc1F)=N[C@H]2C)COCCO3; 1.94

Noted for CCc1nc2n(n1)-c1sc3c(c1C(c1c(F)cccc1F)=N[C@H]2C)COC[C@H](C)O3 : its Ki reads 8.75

Noted for Cc1nnc2n1-c1sc3c(c1C(c1c(F)cccc1Cl)=N[C@H]2C)COCCC3 : its Ki reads 2.52

Noted for Cc1nnc2n1-c1sc3c(c1C(c1c(F)cccc1F)=N[C@H]2C)COCC[C@@H]3F (single isomer, unassigned) : its Ki reads 2.69

Noted for CCc1nnc2n1-c1sc3c(c1C(c1c(F)cccc1F)=N[C@H]2C)COCCO3 : its Ki reads 4.27

Noted for C[C@@H]1N=C(c2c(F)cccc2F)c2c(sc3c2CCCCC3)-n2c1n[nH]c2=O : its Ki reads 2.44

Noted for Cc1nc2n(n1)-c1sc3c(c1C(c1c(F)cccc1F)=N[C@H]2C)COC[C@H](C)O3 : its Ki reads 9.12

----------
- experimental-system: human GABAA α1β3γ2 receptor (Homo sapiens (Human), UniProt P14867+P18507)
- procedure-summary: Radioligand binding assay, competition for [3H]Flumazenil, γ2-containing GABAA subtypes
- condition-description: HEK293F cells, [3H]Flumazenil 1 nM, Table 1; read-out: Ki h-GABAA α1β3γ2
measurement-kind: Ki (µM)
Hi! Could you send only the number? It should be in µM, unit omitted.

C[C@@H]1N=C(c2c(F)cccc2F)c2c(sc3c2COCCC3)-n2nc(C(=O)NC[C@](C)(O)C(F)(F)F)nc21 [Example 69]; 3.7
C[C@@H]1N=C(c2c(F)cccc2F)c2c(sc3c2COC[C@H](C)O3)-n2nc(C(=O)N3CC(OC(C)(C)C)C3)nc21 [Example 41]; 12.3

Next item in the queue.
The compound C[C@@H]1N=C(c2c(F)cccc2F)c2c(sc3c2COCCC3)-n2nc(C(=O)NC[C@@](C)(O)C(F)(F)F)nc21 [Example 70] , when measured on human GABAA α1β3γ2 receptor (Homo sapiens (Human), UniProt P14867+P18507), yielded Ki of 3.55

----------
Readings of pKi for the listed compounds
- experimental-system: human GABAA α1β3γ2 receptor (Homo sapiens (Human), UniProt P14867+P18507)
- procedure-summary: Radioligand binding assay, competition for [3H]Flumazenil, γ2-containing GABAA subtypes
// pKi is dimensionless: -log10 of concentration (M)

Cc1nnc2n1-c1sc3c(c1C(c1c(F)cccc1F)=N[C@H]2C)CCCCC3 [Example 2]; 6.00
Cc1nnc2n1-c1sc3c(c1C(c1c(F)cccc1F)=N[C@H]2C)CCCC3 [RE-B, reference compound]; 7.67
Cc1nnc2n1-c1sc3c(c1C(c1c(F)cccc1F)=N[C@H]2C)CCC[C@H](F)C3 (single isomer, unassigned) [Example 17]; 6.23

Next item in the queue.
Noted for Cc1nnc2n1-c1sc3c(c1C(c1c(F)cccc1F)=N[C@H]2C)CCCCC3F (single isomer, unassigned) [Example 10] : its pKi reads 5.94

----------
- experimental-system: human GABAA α2β2γ1 receptor (Homo sapiens (Human), UniProt P47869+Q8N1C3)
- procedure-summary: Radioligand binding assay, competition for [3H]RO7239181, γ1-containing GABAA subtypes
- condition-description: Ki h-GABAA α2β2γ1, membranes of HEK293F cells, [3H]RO7239181 20-30 nM, Table 1
measurement-kind: Ki (nM)
Hi! Could you send only the number? It should be in nM, unit omitted.

Record excerpt, results attached:
Cc1nnc2n1-c1sc3c(c1C(c1c(F)cccc1F)=N[C@H]2C)CCCCC3O (mixture of isomers) [Example 9]; 14.3
C[C@@H]1N=C(c2c(F)cccc2F)c2c(sc3c2COCCC3)-n2cc(C(=O)NCC3(O)CC3)nc21 [Example 68]; 10.6
C[C@@H]1N=C(c2c(F)cccc2F)c2c(sc3c2COCCO3)-n2nc(C(=O)NC[C@@](C)(O)C(F)(F)F)nc21 [Example 46]; 15.2
Cc1nnc2n1-c1sc3c(c1C(c1c(F)cccc1Cl)=N[C@H]2C)COCCO3 [Example 35]; 18.8
Cc1nnc2n1-c1sc3c(c1C(c1c(F)cccc1F)=N[C@H]2C)CCC[C@@H](F)C3 (single isomer, unassigned) [Example 16]; 89.8
C[C@@H]1N=C(c2c(F)cccc2F)c2c(sc3c2COCCO3)-n2nc(C(=O)NCCF)nc21 [Example 25]; 29
[2H]C1([2H])OCc2c(sc3c2C(c2c(F)cccc2F)=N[C@@H](C)c2nc(C(=O)N4CC(OCC)C4)nn2-3)OC1([2H])[2H] [Example 32]; 7.7
C[C@@H]1N=C(c2c(F)cccc2F)c2c(sc3c2COC[C@H](C)O3)-n2nc(C(=O)N3CC(OC(C)(C)C)C3)nc21 [Example 41]; 65.1
C[C@@H]1N=C(c2c(F)cccc2F)c2c(sc3c2COCCC3)-n2nc(C(=O)N[C@H]3C[C@@H](O)C3)nc21 [Example 64]; 56.2
Cc1nnc2n1-c1sc3c(c1C(c1c(F)cccc1F)=N[C@H]2C)CCCCC3 [Example 2]; 7.4

Noted for Cc1cn2c(nc1=O)[C@H](C)N=C(c1c(F)cccc1F)c1c-2sc2c1CCCCC2 [Example 26] : its Ki reads 32
